test system: CYP3A; assay: CYP3A activity by oral microdosed midazolam; conditions: both, human, in vivo, AUC2–4, 10 μg midazolam + cobicistat (n = 6); geom. mean
reportedMetric: AUC
Field: value (include unit after the number)

The measured AUC associated with `Cc1ncc2n1-c1ccc(Cl)cc1C(c1ccccc1F)=NC2` reads 0.27 ng·h/mL

* * *

system: CYP3A; assay: CYP3A activity by oral microdosed midazolam; conditions: both, human, in vivo, AUC2–4, 10 μg midazolam + voriconazole (n = 6); geom. mean
reportedMetric: AUC (ng·h/mL)
Answers are plain numbers, in ng·h/mL.

Short answer for Cc1ncc2n1-c1ccc(Cl)cc1C(c1ccccc1F)=NC2 [midazolam] : AUC was 0.285
